Target: T1, PxutCSP19-T1 (Papilio xuthus, UniProt A0A194QJK0)
T1 sequence (A0A194QJK0 35-142): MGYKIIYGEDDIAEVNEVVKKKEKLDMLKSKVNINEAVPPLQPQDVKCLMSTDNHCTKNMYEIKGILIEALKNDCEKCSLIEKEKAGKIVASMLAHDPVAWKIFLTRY
Assay: Fluorescence competitive binding assay (1-NPN displacement), truncated PxutCSP19-T1
Settings: T1; Ki = [IC50]/(1 + [1-NPN]/K1-NPN)
Method: In order to investigate the ligand-binding properties of PxutCSP19 to host odorants and insecticides, we first asked whether this fluorescent probe 1-NPN was available for the binding of PxutCSP19. […] The binding constant (K1-NPN) of 1-NPN to this protein was determined with GraphPad Prism 7 (GraphPad Software Inc., San Diego, CA), as previously described. […]
This listing pairs compounds with measured pKi.
Reminder that pKi means the negative base-10 logarithm of the concentration expressed in mol/L.

Challenge: Value lookup for pKi; key = COc1cc(C=O)cc(OC)c1O [Syringaldehyde]
Response given: 4.75

Challenge: Value lookup for pKi; key = O=C(NC(=O)c1c(F)cccc1F)Nc1cc(Cl)c(OC(F)(F)C(F)F)c(Cl)c1 [Hexaflumuron]
Response given: 5.11

Challenge: Value lookup for pKi; key = COC(=O)N(C(=O)N1CO[C@@]2(C(=O)OC)Cc3cc(Cl)ccc3C2=N1)c1ccc(OC(F)(F)F)cc1 [Indoxacarb]
Response given: 5.15
